target: aldosterone synthase (CYP11B2) (Macaca fascicularis)
Value kind: IC50 (nM)

a. OC1COCc2c(-c3ccc4[nH]ncc4c3)cncc21 (single isomer, unassigned) [Compound 47]
b. OC1COCc2c(-c3ccn4ccnc4c3)cncc21 (single isomer, unassigned) [Compound 101]
Query string: Between the entries labelled a and b , which has a larger IC50 value on record? Give the label under which the chosen entry appears.
Result string: b
(b: 225 nM, a: 50 nM)

====

Test system UniProt A0A2K5UPL9, IC50 listed for each of the compounds.
Value kind: IC50 (nM)

CCS(=O)(=O)NC1COCc2c(-c3ccc4c(F)nn(C)c4c3)cncc21 (single isomer, unassigned) [Compound 68] : 15.9
OC1COCc2c(-c3ccc4scnc4c3)cncc21 (single isomer, unassigned) [Compound 20] : 681
Cn1ncc2ccc(-c3cncc4c3COC3(CC3)C4O)cc21 (single isomer, unassigned) [Compound 16] : 12.5
CCC(=O)NC1COCc2c(-c3ccc4c(cnn4C)c3)cncc21 (single isomer, unassigned) [Compound 73] : 34.6
O=C1CCCc2ccc(-c3cncc4c3COCC4O)cc21 (single isomer, unassigned) [Compound 116] : 26.3
CCS(=O)(=O)NC1COCc2c(-c3ccc4c(c3)CC(=O)N4)cncc21 (single isomer, unassigned) [Compound 64] : 611

a. CCC(=O)NC1COCc2c(-c3ccc4c(c3)C(F)(F)CCO4)cncc21 (single isomer, unassigned) [Compound 143]
b. CCS(=O)(=O)NC1COCc2c(-c3ccc4c(c3)C(F)(F)CCO4)cncc21 (single isomer, unassigned) [Compound 144]
c. Cn1ncc2cc(-c3cncc4c3COCC4O)ccc21 (single isomer, unassigned) [Compound 23]
Query string: Parameters: sort_field (IC50), sort_dir (desc). // rank by listing labels in the order requested
Result string: b, c, a
(b: 470 nM, c: 195 nM, a: 27.9 nM)

1. CC1(C)COc2ccc(-c3cncc4c3COCC4O)cc21 (single isomer, unassigned) [Compound 182]
2. CCC(=O)NC1COCc2c(-c3ccc4c(c3)COCC4(F)F)cncc21 (single isomer, unassigned) [Compound 194]
3. OC1COCc2c(-c3ccc4[nH]ccc4c3)cncc21 (single isomer, unassigned) [Compound 48]
4. OC1COCc2c(-c3ccc4c(c3)C(F)(F)CCO4)cncc21 (single isomer, unassigned) [Compound 142]
Query string: Parameters: sort_field (IC50), sort_dir (desc). // rank by listing labels in the order requested
Result string: 1, 4, 2, 3

====

target: aldosterone synthase (CYP11B2) (Macaca fascicularis, UniProt A0A2K5UPL9)
Sequence (A0A2K5UPL9 1-503): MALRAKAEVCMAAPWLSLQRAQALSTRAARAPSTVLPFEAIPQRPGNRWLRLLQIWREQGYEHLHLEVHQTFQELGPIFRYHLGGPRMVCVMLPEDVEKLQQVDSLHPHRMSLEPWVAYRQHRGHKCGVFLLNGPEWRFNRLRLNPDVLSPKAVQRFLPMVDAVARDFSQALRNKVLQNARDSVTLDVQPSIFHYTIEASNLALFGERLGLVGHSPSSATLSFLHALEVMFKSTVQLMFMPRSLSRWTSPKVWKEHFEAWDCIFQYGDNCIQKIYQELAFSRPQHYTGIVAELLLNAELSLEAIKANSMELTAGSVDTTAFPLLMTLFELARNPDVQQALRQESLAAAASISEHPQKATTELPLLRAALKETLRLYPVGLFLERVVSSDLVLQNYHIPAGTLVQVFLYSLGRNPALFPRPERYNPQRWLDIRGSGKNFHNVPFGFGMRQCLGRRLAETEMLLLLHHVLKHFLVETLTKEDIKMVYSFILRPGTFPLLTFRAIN
Value kind: IC50 (nM)

Before answering, review these 3 worked examples.
Cn1ncc2c(F)cc(-c3cncc4c3COCC4N)cc21 (single isomer, unassigned) : 17.3
Cn1nnc2ccc(-c3cncc4c3COC3(CC3)C4O)cc21 (single isomer, unassigned) [Compound 197] : 18
Cn1ncc2ccc(-c3cncc4c3COCC4NC(=O)C3CC3)cc21 (single isomer, unassigned) : 26.4

P. N#Cc1ccc(-c2cncc3c2COCC3O)cc1 (single isomer, unassigned)
Q. Cc1ncc2ccc(-c3cncc4c3COCC4O)cn12 (single isomer, unassigned) [Compound 86]
R. Cn1nnc2ccc(-c3cncc4c3COC3(CC3)C4O)cc21 (single isomer, unassigned) [Compound 198]
S. OC1c2cncc(-c3ccc4c(c3)COCCO4)c2COC12CC2 (single isomer, unassigned)
Query string: Parameters: sort_field (IC50), sort_dir (desc). // rank by listing labels in the order requested
Result string: Q, S, R, P

====

molecular target: UniProt A0A2K5UPL9
pIC50: −log10 of the molar value.
Value kind: pIC50

Before answering, review these 3 worked examples.
OC1COCc2c(-c3ccc4c(c3)OCCO4)cncc21 (single isomer, unassigned) : 6.80
CCS(=O)(=O)NC1COCc2c(-c3ccc4ncn(C)c4c3)cncc21 (single isomer, unassigned) : 6.96
OC1COCc2c(-c3ccc4c(c3)COCC4(F)F)cncc21 (single isomer, unassigned) : 6.55

1. Cn1ncc2ccc(-c3cncc4c3C(O)COC4)cc21 (single isomer, unassigned) [Compound 166]
2. CCC(=O)NC1COCc2c(-c3ccc4ocnc4c3)cncc21 (single isomer, unassigned)
Query string: Select one. Lower pIC50: 1 or 2 Give the label under which the chosen entry appears.
Result string: 2
(2: 7.07, 1: 7.44)

I. OC1COCc2c(-c3ccc4c(c3)C(F)(F)CCO4)cncc21 (single isomer, unassigned) [Compound 141]
II. CCS(=O)(=O)NC1COCc2c(-c3ccc4c(Cl)n[nH]c4c3)cncc21 (single isomer, unassigned)
III. O=C1CCc2cc(-c3cncc4c3COCC4O)ccc2N1 (single isomer, unassigned) [Compound 1]
IV. OC1COCc2c(-c3ccc4cc[nH]c4c3)cncc21 (single isomer, unassigned)
V. OC1COCc2c(-c3ccc4c(c3)COCCC4(F)F)cncc21 (single isomer, unassigned)
Query string: Sort ascending by pIC50. // rank by listing labels in the order requested
Result string: I, V, II, III, IV
(I: 6.47, V: 7.08, II: 7.34, III: 7.54, IV: 7.76)

a. CCC(=O)NC1COCc2c(-c3ccc4cnn(C)c4c3)cncc21 (single isomer, unassigned)
b. O=C1CCc2nc(-c3cncc4c3COCC4O)ccc21 (single isomer, unassigned)
c. O=C1CCCc2ccc(-c3cncc4c3COCC4O)cc21 (single isomer, unassigned) [Compound 115]
d. CCC(=O)NC1COCc2c(-c3ccc4c(cnn4C)c3)cncc21 (single isomer, unassigned) [Compound 72]
Query string: Sort ascending by pIC50. // rank by listing labels in the order requested
Result string: d, c, b, a

a. O=c1ccoc2cc(-c3cncc4c3COCC4O)ccc12 (single isomer, unassigned)
b. Cn1ncc2c(C#N)cc(-c3cncc4c3COCC4O)cc21 (single isomer, unassigned)
Query string: Between the entries labelled a and b , which has a larger pIC50 value on record? Give the label under which the chosen entry appears.
Result string: a

====

molecular target: aldosterone synthase (CYP11B2) (Macaca fascicularis, UniProt A0A2K5UPL9)
pIC50: −log10 of the molar value.
Value kind: pIC50

Before answering, review these 4 worked examples.
CC1(O)CCOc2ccc(-c3cncc4c3COCC4O)cc21 (single isomer, unassigned) [Compound 138] : 5.81
O=C1CCCc2cc(-c3cncc4c3COCC4O)ccc21 (single isomer, unassigned) : 6.99
O=C1NCCc2cc(-c3cncc4c3COC3(CC3)C4O)ccc21 (single isomer, unassigned) : 7.04
CCS(=O)(=O)NC1COCc2c(-c3ccc4c(cnn4C)c3)cncc21 (single isomer, unassigned) : 6.67

1. O=C1NCCOc2cc(-c3cncc4c3COCC4O)ccc21 (single isomer, unassigned) [Compound 146]
2. Cn1ncc2ccc(-c3cncc4c3C(O)COC4)cc21 (single isomer, unassigned) [Compound 165]
3. OC1COCc2c(-c3cnc4[nH]ccc4c3)cncc21 (single isomer, unassigned)
Query string: Sort ascending by pIC50. // rank by listing labels in the order requested
Result string: 1, 3, 2

====

Test system aldosterone synthase (CYP11B2) (Macaca fascicularis, UniProt A0A2K5UPL9), IC50 listed for each of the compounds.
Value kind: IC50 (nM)

Before answering, review these 3 worked examples.
Cc1n[nH]c2cc(-c3cncc4c3COCC4O)ccc12 (single isomer, unassigned) : 81
OC1COCc2c(-c3ccc4nncn4c3)cncc21 (single isomer, unassigned) : 1300
CCS(=O)(=O)NC1COCc2c(-c3ccc4oc(=O)ccc4c3)cncc21 (single isomer, unassigned) : 13

a. CCC(=O)NC1COCc2c(-c3ccc4c(c3)CC(=O)N4C)cncc21 (single isomer, unassigned)
b. Cc1noc2ccc(-c3cncc4c3COCC4O)cc12 (single isomer, unassigned)
Query string: Select one. Lower IC50: a or b Give the label under which the chosen entry appears.
Result string: b

A. CCC(=O)NC1COCc2c(-c3ccc4ncn(C)c4c3)cncc21 (single isomer, unassigned)
B. Cc1ncc2ccc(-c3cncc4c3COC3(CC3)C4O)cn12 (single isomer, unassigned)
C. Cn1ncc2ccc(-c3cncc4c3COC3(CC3)C4O)cc21 (single isomer, unassigned) [Compound 17]
Query string: Parameters: sort_field (IC50), sort_dir (desc). // rank by listing labels in the order requested
Result string: A, B, C

====

molecular target: aldosterone synthase (CYP11B2) (Macaca fascicularis)
pIC50: −log10 of the molar value.
Value kind: pIC50

NC(=O)N1CCCc2cc(-c3cncc4c3C(O)COC4)cnc21 (single isomer, unassigned) : 7.45

1. Cn1nc(C#N)c2ccc(-c3cncc4c3COCC4(C)O)cc21 (single isomer, unassigned)
2. Cc1nnc2ccc(-c3cncc4c3COCC4O)cn12 (single isomer, unassigned)
3. OC1COCc2c(-c3ccc4ncccc4c3)cncc21 (single isomer, unassigned)
4. Cn1nc(C(F)(F)F)cc1-c1cncc2c1COCC2O (single isomer, unassigned)
Query string: Parameters: sort_field (pIC50), sort_dir (desc). // rank by listing labels in the order requested
Result string: 3, 1, 2, 4
